Molecular target: SARS-CoV-2 receptor binding domain (RBD) (SARS-CoV-2, UniProt P0DTC2 319-591)
Test: BLI; mAb loaded on anti-human Fc probe, dipped in antigen

binder	binding result
CV2-66 (antibody, V domains shown) VH: EVQLVESGGGLVQPGRSLRLSCTASGFTFGDYAMSWFRQAPGKGLEWVGFIRSKAYGGTTEYAASVKGRFTISRDDSKSIAYLQMNSLKTEDTAVYYCTRVHHCSGGSCYGYYFDYWGQGTLVTVSS VL: EIVMTQSPATLSVSPGERATLSCRASQSVSSNLAWYQQKPGQAPRLLIYGASTRATGIPARFSGSGSGTEFTLTISSLQSEDFAVYYCQQYNNWVTFGGGTKVEIK	binds
CV2-75 (antibody, V domains shown) VH: QVQLQESGPGLVKPSETLSLTCTVSGGSISSYYWSWIRQPPGKGLEWIGYVYYSGSTNYNPSLKSRVTISVDTSKNEFSLKLSSVTAADTAVYYCASSQRPDGNLYYFDYWGQGTLVTVSS VL: SYVLTQPPSVSVAPGQTARITCGGNNIGSKTVHWYQQKPGQAPVLVVYDDSDRPSGIPERFSGSNSGNTATLTISRVEAGDEADYYCQVWDSSSDHYVFGTGTKVTVL	binds
CV2-65 (antibody, V domains shown) VH: QVQLQESGPGLVKPSETLSLTCTVSGGSISSYYWSWIRQPAGKGLEWIGRIYTSGSTNYNPSLKSRVTMSVDTSKNQFSLKLSSVTAADTAVYYCAREDSYGSGSTGAFDIWGQGTMVTVSS VL: SYELTQPPSVSVSPGQTARITCSGDALPKQYAYWYQQKPGQAPVLVIYKDSERPSGIPERFSGSSSGTTVTLTISGVQAEDEADYYCQSADSSGTYVFGTGTKVTVL	binds
